- Tested on: SN12C renal
- EXPERIMENT NOTES: NCI-60 one-dose screen, 48 h (100 = growth as untreated, 0 = no growth, -100 = all killed)
- STATED CONDITIONS: 10 µM unless noted
This is part of a sample that, as a whole, favours compounds with a hit. Of some 83,000 tested, about 20% had one in any assay.
ASSAY METRIC: growth (%)

INSERT INTO results (molecule, val) VALUES
  ('O=C(O)C1CSCN1 (centres undefined)', 100),
  ('O=[N+]([O-])c1ccc(N/N=C/C2CCCCCC2)c([N+](=O)[O-])c1', 92),
  ('OCCS', 107),
  ('COC(=O)c1nc(=S)[nH]c(C(=O)OC)c1C(=O)c1ccc(OC)cc1', 98.5),
  ('COc1ccc(CCN=Cc2ccc(Cl)cc2)cc1OC', 99.5),
  ('Cc1c(O)nc(N)[nH]c1=O', 109),
  ('C/C=C/C(=O)OCCCCCCCCCCCC', 81.6),
  ('CC1CCC(=O)N1c1ccc(N)cc1 (centres undefined)', 106),
  ('COc1ccc2oc3c(ccc[n+]3C)c(=O)c2c1', 110),
  ('CC1=CC(=O)c2cccc(NC3=NCCO3)c21', 95.1),
  ('CC(NC(=O)CCl)c1ccccc1 (centres undefined)', 110),
  ('CC(=O)c1cc2ccccc2o1', 101),
  ('COc1ccc(S(=O)(=O)c2ccc(F)cc2)cc1', 97.8),
  ('S=c1ccc2ccccc2[nH]1', 101);

----------
- System: U251 CNS
- EXPERIMENT NOTES: NCI-60 one-dose screen, 48 h (100 = growth as untreated, 0 = no growth, -100 = all killed)
- STATED CONDITIONS: 10 µM unless noted
Compounds without any hit were thinned out: in the full panel of roughly 83,000, 20% have a hit. Active and inactive are the calls of the source. How the source made its calls: active means growth percent below 10; inactive means the rest.
This listing pairs compounds with measured growth.
ASSAY METRIC: growth

INSERT INTO results (compound, tested_target, assay_metric, val) VALUES
  ('CCNC1=CC(=O)c2ncccc2C1=O', 'U251 CNS', 'growth', '30.7% (inactive)'),
  ('N=c1sc2ccccc2n1CC(=O)O', 'U251 CNS', 'growth', '91.8% (inactive)'),
  ('O=[N+]([O-])c1cccc(N=Cc2ccccc2)c1', 'U251 CNS', 'growth', '103% (inactive)'),
  ('O=C(O)COc1ccccc1F', 'U251 CNS', 'growth', '109% (inactive)'),
  ('N#Cc1c(N)nc2c(c(-c3ccc(Cl)cc3)nn2-c2ccccc2)c1C#N', 'U251 CNS', 'growth', '92.8% [100 µM] (inactive)'),
  ('O=C(O)C(Cc1ccc(OS(=O)(=O)Cc2ccccc2)cc1)NS(=O)(=O)Cc1ccccc1 (stereo not drawn)', 'U251 CNS', 'growth', '104% (inactive)'),
  ('CC1=CC(=O)c2cccc(NC3=NCCO3)c21', 'U251 CNS', 'growth', '99.5% (inactive)'),
  ('O=C(O)Cc1cc(=O)[nH]n(-c2ccccc2)c1=O', 'U251 CNS', 'growth', '99.9% (inactive)'),
  ('CCC(C)(O)CCC(C)(O)CC (stereo not drawn)', 'U251 CNS', 'growth', '104% (inactive)'),
  ('O=C1Cc2ccccc2C(=O)N1', 'U251 CNS', 'growth', '86.1% (inactive)'),
  ('Clc1ccc2sc(-c3ccccc3)nc2c1', 'U251 CNS', 'growth', '105% (inactive)'),
  ('CN(C)C(=S)N(C)C', 'U251 CNS', 'growth', '105% (inactive)'),
  ('Nc1c(Cl)cc2c(c1Br)C(=O)c1ccccc1C2=O', 'U251 CNS', 'growth', '95.8% (inactive)'),
  ('CCNCc1ccccc1', 'U251 CNS', 'growth', '101% (inactive)'),
  ('CC1CCC(=O)N1c1ccc(N)cc1 (stereo not drawn)', 'U251 CNS', 'growth', '97.3% (inactive)'),
  ('CCc1ccc(OC(=O)CCl)cc1', 'U251 CNS', 'growth', '97% (inactive)'),
  ('CCCC(=O)OCC(COC(=O)CCC)OC(=O)CCC', 'U251 CNS', 'growth', '88.3% (inactive)'),
  ('S=c1nn[nH]n1C1CCCCC1', 'U251 CNS', 'growth', '102% (inactive)'),
  ('Cc1cnc(N)s1', 'U251 CNS', 'growth', '95.5% (inactive)'),
  ('CC(=O)C[n+]1ccccc1Sc1ccc(Cl)cc1', 'U251 CNS', 'growth', '73% (inactive)'),
  ('COc1ccc2nccc(Cl)c2c1', 'U251 CNS', 'growth', '97.6% (inactive)'),
  ('Cc1cc(-c2ccc(N=Nc3c(C)nn(-c4ccc(S(=O)(=O)O)cc4)c3O)c(C)c2)ccc1N=Nc1ccc(O)c(C(=O)O)c1', 'U251 CNS', 'growth', '99.1% (inactive)'),
  ('CC(=O)c1cc2ccccc2o1', 'U251 CNS', 'growth', '109% (inactive)'),
  ('CCOC(=O)c1ccc(N2C(=O)C(Cl)(c3ccccc3)C2c2ccco2)cc1 (stereo not drawn)', 'U251 CNS', 'growth', '79.1% (inactive)'),
  ('COc1ccc(CCl)c(C)c1OC', 'U251 CNS', 'growth', '97.6% (inactive)'),
  ('CCOC(=O)c1ccncc1', 'U251 CNS', 'growth', '104% (inactive)'),
  ('COC(=O)c1nc(N)nc(C(=O)OC)c1C(=O)c1ccc(F)cc1', 'U251 CNS', 'growth', '102% (inactive)'),
  ('Cc1cc(=NO)cc(C)n1O', 'U251 CNS', 'growth', '113% (inactive)');

----------
- Test system: A549/ATCC NSCLC
- EXPERIMENT NOTES: NCI-60 one-dose screen, 48 h (100 = growth as untreated, 0 = no growth, -100 = all killed)
- STATED CONDITIONS: 10 µM unless noted
The panel holds about 83,000 compounds, 20% with a hit somewhere; the sample as a whole holds those more often.
// boundary case: growth equal to 90% maps to f; strictly smaller maps to t

INSERT INTO assay_data (compound, group) VALUES
  ('CC(=O)/C(N=Nc1ccc(S(=O)(=O)c2ccc(N=N/C(C(C)=O)=C(/C)O)cc2)cc1)=C(\C)O', 'f'),
  ('CCCCCCCCCCCCCCCCC(=O)O', 'f'),
  ('CC(=O)Oc1cc(C)c(OC(C)=O)c(C)c1C', 'f'),
  ('CC(O)CCNC(c1ccccc1)C(O)c1ccccc1 (configuration not stated)', 'f'),
  ('Cc1cnc(N)s1', 't');

----------
- System: NCI-H23 lung
- EXPERIMENT NOTES: NCI-60 one-dose screen, 48 h (100 = growth as untreated, 0 = no growth, -100 = all killed)
- STATED CONDITIONS: 10 µM unless noted
About 83,000 compounds went through this panel and 20% of them were active in at least one assay; those are over-represented in the sample as a whole.
Overview of reported growth across a group of compounds:
ASSAY METRIC: growth (%)

INSERT INTO results (compound, val) VALUES
  ('COC(=O)c1nc(=S)[nH]c(C(=O)OC)c1C(=O)c1ccc(OC)cc1', 97.4),
  ('CN(C)CC(CN(C)C)C(O)c1ccccc1 (stereo not drawn)', 106),
  ('CCCCCCC(C)CC1=C(O)c2ccccc2C(=O)C1=O (stereo not drawn)', 42.2);

----------
- Test system: SN12C renal
- EXPERIMENT NOTES: NCI-60 one-dose screen, 48 h
- STATED CONDITIONS: 10 µM unless noted
The panel holds about 83,000 compounds, 20% with a hit somewhere; the sample as a whole holds those more often. The source made the active and inactive calls. How the source made its calls: active means growth percent below 10; inactive means the rest.
Outcomes: class 1 = active, class 0 = inactive

INSERT INTO assay_data (compound, group) VALUES
  ('Cc1cccc(Cl)c1N', 'class 0'),
  ('Cc1cc(Cl)nc(Nc2ccccc2)n1', 'class 0'),
  ('C/C=C(/C(=O)NC(N)=O)C(C)C', 'class 0'),
  ('Cc1ccc(NC(=S)N/C=C(\c2ccccc2)S(=O)Cc2ccccc2)c(C)c1 (centres undefined)', 'class 0'),
  ('OCCCc1ccccc1', 'class 0'),
  ('NNc1ncnc2cccc(Cl)c12', 'class 0'),
  ('CC(=O)C[n+]1ccccc1Sc1ccc(Cl)cc1', 'class 0'),
  ('CCCC(=O)Oc1ccc2ccccc2c1', 'class 0'),
  ('Cc1ccc(S(=O)(=O)n2ccnc2)cc1', 'class 0'),
  ('Clc1ccc2c(c1)N(C1CCCN(Cc3ccccc3)C1)c1ccccc1S2 (centres undefined)', 'class 0'),
  ('O=c1[nH]c(=O)c2[nH]c(=O)[nH]c2[nH]1', 'class 0'),
  ('CCOP(C)(=O)/C(Cc1ccc(OC)c(OC)c1)=N\O (centres undefined)', 'class 0'),
  ('O=S(=O)(O)c1ccc2cc(O)ccc2c1', 'class 0'),
  ('N#CC(=S)Nc1ccc(Cl)c(Cl)c1', 'class 1');
